# measurement description: pH-solubility of cariprazine hydrochloride at 37° C.
# Format: physicochemical
# assay conditions: 37 °C, pH 6, aqueous buffer, pH 6, read-out: Solubility
Counter-ions that a name gives are not always drawn.
readout type: solubility (mg/mL)
Just the number in mg/mL, nothing appended.

Qu. I am curious: what solubility value has been reported for CN(C)C(=O)N[C@H]1CC[C@H](CCN2CCN(c3cccc(Cl)c3Cl)CC2)CC1 [cariprazine hydrochloride] ?
Ans. 0.0188

====

# measurement description: pH-solubility of cariprazine hydrochloride at 37° C.
# Type: physicochemical
# assay conditions: 37 °C, pH 1, simulated gastric fluid, pH 1, read-out: Solubility
Structures can show the parent of a compound that is named as a salt.
readout type: solubility

Qu. I am curious: what solubility value has been reported for CN(C)C(=O)N[C@H]1CC[C@H](CCN2CCN(c3cccc(Cl)c3Cl)CC2)CC1 [cariprazine hydrochloride] ?
Ans. 3260 µg/mL
